Experimental System: rat adrenergic α1A receptor (Rattus norvegicus)
Construct: rat adrenergic α1A receptor obtained from Wistar Rat submaxillary glands; from tissue; host or cells: Wistar rat submaxillary glands
Sequence (P43140 whole entry): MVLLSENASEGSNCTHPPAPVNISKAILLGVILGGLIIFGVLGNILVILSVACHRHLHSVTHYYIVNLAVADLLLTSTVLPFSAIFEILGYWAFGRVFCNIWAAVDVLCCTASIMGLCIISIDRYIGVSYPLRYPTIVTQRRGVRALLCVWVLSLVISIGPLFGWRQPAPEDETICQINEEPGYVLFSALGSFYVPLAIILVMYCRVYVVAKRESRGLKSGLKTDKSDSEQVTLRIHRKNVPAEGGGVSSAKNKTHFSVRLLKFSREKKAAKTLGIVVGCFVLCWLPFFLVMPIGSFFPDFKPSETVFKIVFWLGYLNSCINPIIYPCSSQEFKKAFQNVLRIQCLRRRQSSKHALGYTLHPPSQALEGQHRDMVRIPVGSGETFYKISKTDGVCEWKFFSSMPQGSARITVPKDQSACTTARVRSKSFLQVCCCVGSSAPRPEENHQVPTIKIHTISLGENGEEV
Procedure Details: Adrenergic α1A radioligand binding ([3H]Prazosin)
Stated Conditions: read-out: Adrenergic (0.1 μM) a1A, percent inhibition of specific binding; compound at 0.1 μM; 0.25 nM [3H]Prazosin
Short version: inhibition at 0.1 µM at least 20% is condition met, less is condition not met.

>>> discrete_label("Cc1ccc2c(c1)c1c(n2-c2cscc2-c2cccc3[nH]ncc23)CCN(C)C1")
"condition met"

**Query** Check this compound for inhibition at 0.1 µM at or above 20%: Cc1ccc2c(c1)c1c(n2-c2ccccc2-c2cn[nH]c2)CCN(C)C1
**Result** condition not met

**Query** Determine whether measured inhibition at 0.1 µM meets or exceeds 20% for CNC(=O)c1cccc(-c2ccc(-n3c4c(c5cc(C)ccc53)CN(C)CC4)nc2)c1
**Result** condition met

**Query** Is inhibition at 0.1 µM at least 20%? Consider Cc1ccc2c(c1)c1c(n2-c2ccccc2-c2ccc3c(ccn3C)c2)CCN(C)C1
**Result** condition met

**Query** # check: inhibition at 0.1 µM of CNC(=O)c1cc(-n2c3c(c4cc(C)ccc42)CN(C)CC3)cs1 is greater than or equal to 20%
**Result** condition not met

**Query** Item Cc1ccc2c(c1)c1c(n2-c2ccsc2)CCN(C)C1 with inhibition at 0.1 µM of 20% or above?
**Result** condition met

**Query** Could you please find out whether Cc1ccc2c(c1)c1c(n2-c2cccs2)CCN(C)C1 has inhibition at 0.1 µM that meets 20% or exceeds it?
**Result** condition not met

**Query** Dear colleague, could you confirm whether Cc1ccc2c(c1)c1c(n2-c2ccc(-c3ccc(C)nc3)cn2)CCN(C)C1 has inhibition at 0.1 µM at or above 20%?
**Result** condition met

**Query** Would you say Cc1ccc2c(c1)c1c(n2-c2cccc(-c3cncc4ccccc34)c2)CCN(C)C1 shows inhibition at 0.1 µM at minimum 20%?
**Result** condition not met

**Query** # check: inhibition at 0.1 µM of Cc1ccc2c(c1)c1c(n2-c2ccc(-c3cnn(C)c3)cn2)CCN(C)C1 is greater than or equal to 20%
**Result** condition not met

**Query** Form field: inhibition at 0.1 µM at least 20%? Entry: Cc1ccc2c(c1)c1c(n2-c2cccc(-c3ccc(F)nc3)c2)CCN(C)C1
**Result** condition not met

**Query** Dear colleague, could you confirm whether Cc1ccc2c(c1)c1c(n2-c2cccc(-c3cccn3C)c2)CCN(C)C1 has inhibition at 0.1 µM at or above 20%?
**Result** condition not met

**Query** Determine whether measured inhibition at 0.1 µM meets or exceeds 20% for Cc1ccc2c(c1)c1c(n2-c2cccc(-c3ccc(F)cc3)c2)CCN(C)C1
**Result** condition not met

###

Experimental System: human recombinant serotonin (5-Hydroxytryptamine) 5-HT7 receptor (Homo sapiens, UniProt P34969)
Construct: expressed in transfected cells; host or cells: CHO
Sequence (P34969 whole entry): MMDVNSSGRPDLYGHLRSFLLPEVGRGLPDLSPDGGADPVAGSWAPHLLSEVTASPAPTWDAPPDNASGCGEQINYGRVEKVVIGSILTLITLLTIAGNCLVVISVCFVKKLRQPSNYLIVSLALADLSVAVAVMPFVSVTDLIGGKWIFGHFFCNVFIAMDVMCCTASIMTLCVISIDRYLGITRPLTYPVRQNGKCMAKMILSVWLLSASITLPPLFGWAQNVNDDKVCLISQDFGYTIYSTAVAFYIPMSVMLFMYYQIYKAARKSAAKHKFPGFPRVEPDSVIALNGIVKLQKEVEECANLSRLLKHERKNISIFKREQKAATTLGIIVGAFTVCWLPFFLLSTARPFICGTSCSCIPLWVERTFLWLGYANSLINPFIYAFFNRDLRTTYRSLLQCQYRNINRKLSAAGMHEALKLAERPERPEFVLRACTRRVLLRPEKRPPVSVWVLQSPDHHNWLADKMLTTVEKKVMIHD
Procedure Details: Serotonin 5-HT7 radioligand binding ([3H]LSD)
Stated Conditions: compound at 0.1 μM; read-out: Inhibition of ligand binding, Serotonin 5-HT7 (percent inhibition of specific binding)
Label scheme for inhibition at 0.1 µM: low (below 20%), moderate (20% to below 50%), high (50% or more)

>>> discrete_label("Cc1cc(C)c2c(c1)c1c(n2-c2cccc(-c3ccncc3)c2)CCN(C)C1")
"moderate"

Shift focus to the following entry.
**Query** Dear colleague, I would appreciate it if you could identify the bin for CC(=O)Nc1ccc(-c2cscc2-n2c3c(c4cc(C)ccc42)CN(C)CC3)cn1 and reply at your convenience.
**Result** high

###

Experimental System: human recombinant serotonin (5-Hydroxytryptamine) 5-HT6 receptor (Homo sapiens, UniProt P50406)
Construct: expressed in transfected cells; host or cells: HeLa
Sequence (P50406 whole entry): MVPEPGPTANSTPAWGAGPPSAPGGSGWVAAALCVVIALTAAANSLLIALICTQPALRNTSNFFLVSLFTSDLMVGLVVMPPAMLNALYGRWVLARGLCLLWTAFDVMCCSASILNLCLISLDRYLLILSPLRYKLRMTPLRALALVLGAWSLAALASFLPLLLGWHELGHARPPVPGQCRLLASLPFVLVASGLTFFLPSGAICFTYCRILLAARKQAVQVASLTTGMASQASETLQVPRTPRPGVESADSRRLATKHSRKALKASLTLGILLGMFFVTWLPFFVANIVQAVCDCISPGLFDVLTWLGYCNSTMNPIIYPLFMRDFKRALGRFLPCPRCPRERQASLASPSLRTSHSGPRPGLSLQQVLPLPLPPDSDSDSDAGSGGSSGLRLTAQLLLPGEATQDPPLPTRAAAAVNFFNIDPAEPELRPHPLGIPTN
Procedure Details: Serotonin 5-HT6 radioligand binding ([3H]LSD)
Stated Conditions: compound at 0.1 μM; read-out: Inhibition of ligand binding, Serotonin 5-HT6 (percent inhibition of specific binding)
Label 1 when inhibition at 0.1 µM is at or above 20%; anything below gets -1.

Answered cases to consult:
>>> discrete_label("Cc1ccc2c(c1)c1c(n2-c2ccccc2-c2ccc(C)nc2)CCN(C)C1")
-1
>>> discrete_label("Cc1ccc2c(c1)c1c(n2-c2ccccc2-c2ccc(S(C)(=O)=O)cc2)CCN(C)C1")
-1
>>> discrete_label("Cc1ccc2c(c1)c1c(n2-c2ccc(-c3ccnn3C)cn2)CCN(C)C1")
-1
>>> discrete_label("CN1CCc2c(c3cc(Cl)ccc3n2-c2cscc2-c2cccnc2)C1")
1
>>> discrete_label("Cc1ccc2c(c1)c1c(n2-c2ccccc2-c2ccnn2C)CCN(C)C1")
-1
>>> discrete_label("Cc1ccc2c(c1)c1c(n2-c2cscn2)CCN(C)C1")
-1
>>> discrete_label("COc1ccc(-n2c3c(c4cc(C)ccc42)CN(C)CC3)cn1")
-1
>>> discrete_label("Cc1ccc2c(c1)c1c(n2-c2cccc(N(C)C)c2)CCN(C)C1")
-1

**Query** Is reported inhibition at 0.1 µM greater than or equal to 20% here: Cc1ccc2c(c1)c1c(n2-c2cscc2-c2ccc(F)cc2)CCN(C)C1
**Result** 1

**Query** Threshold query (inhibition at 0.1 µM >= 20%) on Cc1ccc2c(c1)c1c(n2-c2cccc(-c3ccc(F)cc3)c2)CCN(C)C1
**Result** -1

**Query** Given CC(=O)Nc1ccc(-c2ccc(-n3c4c(c5cc(C)ccc53)CN(C)CC4)nc2)cn1 , state whether its inhibition at 0.1 µM is at least 20%.
**Result** -1

**Query** Say whether Cc1ccc2c(c1)c1c(n2-c2cccc(-c3c(C)noc3C)c2)CCN(C)C1 shows inhibition at 0.1 µM of 20% or more.
**Result** 1

**Query** Item Cc1ccc2c(c1)c1c(n2-c2ccccc2-c2cccc3[nH]ncc23)CCN(C)C1 with inhibition at 0.1 µM of 20% or above?
**Result** 1

**Query** Decide: is the reported value of inhibition at 0.1 µM for Cc1ccc2c(c1)c1c(n2-c2cccc(-c3cc4ccccc4s3)c2)CCN(C)C1 equal to or greater than 20%?
**Result** -1

**Query** # check: inhibition at 0.1 µM of Cc1ccc2c(c1)c1c(n2-c2ccccc2-c2cccn2C)CCN(C)C1 is greater than or equal to 20%
**Result** 1

**Query** Form field: inhibition at 0.1 µM at least 20%? Entry: Cc1ccc2c(c1)c1c(n2-c2cnc(C)c3ccccc23)CCN(C)C1
**Result** -1

###

Experimental System: human recombinant adrenergic α2C receptor (Homo sapiens, UniProt P18825)
Construct: expressed in transfected cells; host or cells: insect Sf9 cells
Sequence (P18825 whole entry): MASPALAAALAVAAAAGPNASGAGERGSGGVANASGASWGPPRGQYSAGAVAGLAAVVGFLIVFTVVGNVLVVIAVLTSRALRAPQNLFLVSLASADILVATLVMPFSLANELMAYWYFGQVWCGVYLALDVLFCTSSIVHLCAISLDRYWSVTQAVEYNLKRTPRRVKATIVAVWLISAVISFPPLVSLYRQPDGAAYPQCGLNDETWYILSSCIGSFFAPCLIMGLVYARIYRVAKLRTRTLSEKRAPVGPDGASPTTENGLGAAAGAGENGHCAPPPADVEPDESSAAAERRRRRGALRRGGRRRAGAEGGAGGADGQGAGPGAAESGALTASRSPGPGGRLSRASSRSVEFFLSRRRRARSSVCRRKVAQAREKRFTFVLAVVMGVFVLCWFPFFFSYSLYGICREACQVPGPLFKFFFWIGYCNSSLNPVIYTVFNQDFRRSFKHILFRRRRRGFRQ
Procedure Details: Adrenergic α2C radioligand binding ([3H]MK-912)
Stated Conditions: read-out: Adrenergic (0.1 μM) a2C, percent inhibition of specific binding; compound at 0.1 μM; 1 nM [3H]MK-912
Measurement Name: inhibition at 0.1 µM (%)
Give just the numeric value; % need not be written.

Known inhibition at 0.1 µM results, listed for orientation:
>>> observed_result("Cc1ccc2c(c1)c1c(n2-c2ccc(-c3cccnc3)cn2)CCN(C)C1 [Compound No. 133]")
0
>>> observed_result("Cc1ccc2c(c1)c1c(n2-c2ccccc2-c2cc3ccccc3s2)CCN(C)C1 [Compound No. 103]")
69
>>> observed_result("Cc1cc(C)c2c(c1)c1c(n2-c2ccc3ncccc3c2)CCN(C)C1 [Compound 48]")
-7
>>> observed_result("Cc1csc(-c2ccc(-n3c4c(c5cc(C)ccc53)CN(C)CC4)nc2)c1 [Compound No. 144]")
49
>>> observed_result("Cc1ccc2c(c1)c1c(n2-c2cccc(-c3ccc(C)s3)c2)CCN(C)C1 [Compound No. 64]")
12

**Query** Give the measured inhibition at 0.1 µM of Cc1ccc2c(c1)c1c(n2-c2cscc2-c2cc3ccccc3s2)CCN(C)C1 [Compound No. 151] .
**Result** 52

**Query** Endpoint output: inhibition at 0.1 µM of Cc1ccc2c(c1)c1c(n2-c2ccc(-c3ccc(F)cc3)cn2)CCN(C)C1 [Compound No. 140] . Value?
**Result** 53

**Query** Can you look up the measured inhibition at 0.1 µM of Cc1ccc2c(c1)c1c(n2-c2cccc(-c3ccnn3C)c2)CCN(C)C1 [Compound No. 66] for me?
**Result** 8

**Query** Data request, read-out inhibition at 0.1 µM, for Cc1ccc2c(c1)c1c(n2-c2cccc(-c3cccn3C)c2)CCN(C)C1 [Compound No. 69]
**Result** -4

**Query** For the compound shown here, Cc1ccc2c(c1)c1c(n2-c2cscc2-c2cnn(C)c2)CCN(C)C1 [Compound 30] , give the reported inhibition at 0.1 µM.
**Result** 10

**Query** Could you tell me which inhibition at 0.1 µM is on file for Cc1ccc2c(c1)c1c(n2-c2ccccc2-c2ccc(F)nc2)CCN(C)C1 [Compound No. 84] ?
**Result** 23

**Query** Please look up its inhibition at 0.1 µM: Cc1ccc2c(c1)c1c(n2-c2cccc(-c3ccc4[nH]cnc4c3)c2)CCN(C)C1 [Compound 54]
**Result** 12

**Query** Requested field: inhibition at 0.1 µM. Item: Cc1ccc2c(c1)c1c(n2-c2cscc2C(=O)N(C)C)CCN(C)C1 [Compound No. 152]
**Result** 12

**Query** Consider the compound shown here: CNC(=O)c1ccc(-c2cccc(-n3c4c(c5cc(C)ccc53)CN(C)CC4)c2)cn1 [Compound No. 75] What is its recorded inhibition at 0.1 µM?
**Result** -3

**Query** Name the reported inhibition at 0.1 µM value associated with the compound Cc1ccc2c(c1)c1c(n2-c2ccc(-c3cccc4ccccc34)cn2)CCN(C)C1 [Compound No. 141]
**Result** 16

**Query** Requested field: inhibition at 0.1 µM. Item: Cc1ccc2c(c1)c1c(n2-c2ccc3cnccc3c2)CCN(C)C1 [Compound 38]
**Result** 11

**Query** So what's the measured inhibition at 0.1 µM for this one? Cc1ccc2c(c1)c1c(n2-c2cccc(-c3ccc(S(N)(=O)=O)cc3)c2)CCN(C)C1 [Compound No. 158]
**Result** 0

**Query** Given the entry Cc1ccc2c(c1)c1c(n2-c2ccccc2-c2sccc2C)CCN(C)C1 [Compound No. 102] , report its measured inhibition at 0.1 µM.
**Result** 43

**Query** Fill in: inhibition at 0.1 µM of CC(=O)Nc1ccc(-c2ccc(-n3c4c(c5cc(C)ccc53)CN(C)CC4)nc2)cn1 [Compound No. 139] is ___
**Result** 2
